Molecular target: human LPA1 (Homo sapiens)
Construct: expressed in transfected cells; host or cells: CHO-K1
Assay: In vitro LPA1 calcium flux antagonist assay - Bioduro protocol
Format: cell-based
Conditions: CHO-K1 cells overexpressing human LPA1 and G15a; LPA challenge at EC80; calcium mobilization on FLIPR Tetra; read-out: IC50

mol smiles: CCCCOCc1cc(NC2(C(=O)O)CCOCC2)ccc1-c1ccc(C)c(OCC)c1C
IC50 [nM]: 6.41
--
mol smiles: COc1cc(-c2ccc(NC3(C(=O)O)CCOCC3)cc2COC2CCCC2)c2c(c1C)OCC2
IC50 [nM]: 31.9
--
mol smiles: CCOc1cccc(-c2ccc(NC3(C(=O)O)CCC3)cc2COC2CC2)c1C(F)F
IC50 [nM]: 10.3
--
mol smiles: COc1cc(-c2ccc(NC3(C(=O)O)CCOCC3)cc2COC2CCCC2)c(Cl)c(OC)c1F
IC50 [nM]: 51.9

###

# pIC50 values compiled below
Biological target: human LPA1 (Homo sapiens, UniProt Q92633)
Construct: expressed in transfected cells; host or cells: CHO-K1
Sequence (Q92633 whole entry): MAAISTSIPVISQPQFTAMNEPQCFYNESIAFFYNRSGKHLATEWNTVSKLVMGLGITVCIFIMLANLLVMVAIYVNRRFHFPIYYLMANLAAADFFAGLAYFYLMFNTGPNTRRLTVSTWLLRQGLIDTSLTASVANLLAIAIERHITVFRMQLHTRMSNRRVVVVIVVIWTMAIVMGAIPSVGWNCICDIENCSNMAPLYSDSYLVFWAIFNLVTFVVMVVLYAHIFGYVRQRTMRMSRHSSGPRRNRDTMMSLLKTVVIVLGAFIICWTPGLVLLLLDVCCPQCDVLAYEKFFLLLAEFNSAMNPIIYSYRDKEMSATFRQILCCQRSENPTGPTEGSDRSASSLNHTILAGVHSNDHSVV
Assay: In vitro LPA1 calcium flux antagonist assay - Bioduro protocol
Assay type: cell-based
Details: Table B3; CHO-K1 cells overexpressing human LPA1 and G15a, LPA challenge at EC80; read-out: Activity (IC50 class)
pIC50: −log10 of the molar value.

molecule: COc1cc(OC)c(C)c(-c2ccc(NC3(C(=O)O)CCOCC3)cc2COC2CCCC2)c1 [Compound 179]
pIC50: > 7.00
--
molecule: CCOc1cccc(-c2ccc(NC3(C(=O)O)CCOCC3)cc2COC2CC2)c1F [Compound 306]
pIC50: 6.00 to 7.00
--
molecule: COc1cc(-c2ccc(NC3(C(=O)O)CCOCC3)cc2COCC(C)C)c(C)c(OC)c1C [Compound 397]
pIC50: > 7.00
--
molecule: COc1cc(-c2ccc(NC3(C(=O)O)CCOCC3)cc2COC2CCCC2)c(Cl)c(OC)c1F [Compound 261]
pIC50: > 7.00
--
molecule: CCOc1cc(OC)cc(-c2ccc(NC3(C(=O)O)CCOCC3)cc2COC2CCCC2)n1 [Compound 363]
pIC50: < 6.00
--
molecule: COc1cc(-c2c(COC3CCCC3)cc(NC3(C(=O)O)CCOCC3)cc2OC)cc(OC)c1C [Compound 175]
pIC50: 6.00 to 7.00
--
molecule: COc1cc(-c2ccc(OC3(C(=O)O)CCOCC3)cc2COC2CC2)c(C)c(OC)c1C [Compound 354]
pIC50: > 7.00
--
molecule: COc1cc(-c2ccc(OC3(C(=O)O)CCOCC3)cc2COC2CCCC2)c(Cl)c(OC)n1 [Compound 230]
pIC50: 6.00 to 7.00
--
molecule: COc1cc2c(c(-c3ccc(NC4(C(=O)O)CCOCC4)cc3COC3CCCC3)c1)CCO2 [Compound 198]
pIC50: 6.00 to 7.00
--
molecule: CCOc1cc(OC)cc(-c2ccc(NC3(C(=O)O)CCOCC3)cc2COC2CC2)n1 [Compound 324]
pIC50: < 6.00
--
molecule: CCc1c(-c2ccc(OC3(C(=O)O)CCOCC3)cc2COC2CCCC2)cc(OC)c(C)c1OC [Compound 194]
pIC50: > 7.00
--
molecule: COc1cc(-c2ccc(NC3(C(=O)O)CCOCC3)cc2COC2CCCCC2)c(F)c(OC)c1C [Compound 276]
pIC50: > 7.00
--
molecule: CCOc1cc(-c2ccc(NC3(C(=O)O)CCOCC3)cc2COC2CCCC2)cc(OC)c1C [Compound 330]
pIC50: > 7.00
--
molecule: COc1cc(-c2ccc(NC3(C(=O)O)CC3)cc2COC2Cc3ccccc3C2)cc(OC)c1C [Compound 109]
pIC50: > 7.00
--
molecule: COc1cc(-c2ccc(NC3(C(=O)O)CCOCC3)cc2COC2COc3ccccc32)cc(OC)c1C (single isomer, unassigned) [Compound 216]
pIC50: > 7.00
--
molecule: COc1cc(C2CC2)cc(-c2ccc(NC3(C(=O)O)CCOCC3)cc2COC2CCCC2)c1F [Compound 251]
pIC50: > 7.00
--
molecule: CCOc1cccc(-c2ccc(NC3(C(=O)O)CCC(F)(F)CC3)cc2COC2CC2)c1C(F)F [Compound 384]
pIC50: > 7.00
--
molecule: COc1cc(-c2ccc(OC3(C(=O)O)CC3)cc2COC2Cc3ccccc3C2)cc(OC)c1C [Compound 117]
pIC50: > 7.00
--
molecule: CCOc1cncc(-c2c(C)cc(NC3(C(=O)O)CCOCC3)cc2COC2CC2)c1C(F)F [Compound 410]
pIC50: 6.00 to 7.00
--
molecule: COc1cc(-c2ccc(NC3(C(=O)O)CCN(C)CC3)cc2COC2CCCC2)cc(OC)c1C [Compound 138]
pIC50: 6.00 to 7.00
